# Target Of Assay: sigma 2 receptor (Homo sapiens)
# Sequence (Q5BJF2 whole entry, species assumed): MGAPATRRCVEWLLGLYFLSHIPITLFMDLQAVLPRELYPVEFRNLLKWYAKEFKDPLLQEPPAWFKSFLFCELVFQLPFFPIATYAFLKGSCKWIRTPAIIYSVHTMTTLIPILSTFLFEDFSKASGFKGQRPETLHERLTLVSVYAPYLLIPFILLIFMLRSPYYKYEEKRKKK
# Method Summary: Sigma 2 receptor radioligand competition binding
# Setup Conditions: Table 1; ratio of Sig1R Ki to Sig2R Ki
This listing pairs compounds with measured Ki ratio Sig1R/Sig2R.
// no unit, no text: just the number

Examples from the recorded data:
compound="CCOC(=O)CCN1CCN(c2ccc3c(c2)C(NC(=O)OCc2ccccc2)CCC3)CC1 (stereo not drawn) [MDW-1-206]" measured_quantity="Ki ratio Sig1R/Sig2R" data_value=28
compound="CCCN1CCN(c2ccc3c(c2)C(OC(=O)CCc2ccccc2)CCC3)CC1 (stereo not drawn) [MDW-1-290]" measured_quantity="Ki ratio Sig1R/Sig2R" data_value=1
compound="CCCN1CCN(c2ccc3c(c2)C(NC(=O)OCc2ccccc2)CCC3)CC1 (stereo not drawn) [MDW-1-202]" measured_quantity="Ki ratio Sig1R/Sig2R" data_value=3
compound="CCN1CCN(c2ccc3c(c2)C(N(C)C(=O)OCc2ccccc2)CCC3)CC1 (stereo not drawn) [MDW-1-161]" measured_quantity="Ki ratio Sig1R/Sig2R" data_value=25
compound="CCCN1CCN(c2ccc3c(c2)C(N(CCC)C(=O)OCc2ccccc2)CCC3)CC1 (stereo not drawn) [MDW-1-196]" measured_quantity="Ki ratio Sig1R/Sig2R" data_value=22

query: For the compound shown here, CCCN1CCN(c2ccc3c(c2)C(N(C)C(=O)OCc2ccccc2)CCC3)CC1 (stereo not drawn) [MDW-2-76] , give the reported Ki ratio Sig1R/Sig2R.
result: 36

query: Item CCCN1CCN(c2ccc3c(c2)C(N(CC)C(=O)OCc2ccccc2)CCC3)CC1 (stereo not drawn) [MDW-1-195] has what recorded Ki ratio Sig1R/Sig2R?
result: 70

query: Entry COC(=O)CCN1CCN(c2ccc3c(c2)C(N(C)C(=O)OCc2ccccc2)CCC3)CC1 (stereo not drawn) [MDW-1-166] has what Ki ratio Sig1R/Sig2R?
result: 67

query: Name the recorded Ki ratio Sig1R/Sig2R for CCCN(C(=O)OCc1ccccc1)C1CCCc2ccc(N3CCN(CCC(=O)OCC)CC3)cc21 (stereo not drawn) [MDW-1-191] .
result: 124

* * *

# Target Of Assay: Alpha1D (Homo sapiens, UniProt P25100)
# Sequence (P25100 whole entry): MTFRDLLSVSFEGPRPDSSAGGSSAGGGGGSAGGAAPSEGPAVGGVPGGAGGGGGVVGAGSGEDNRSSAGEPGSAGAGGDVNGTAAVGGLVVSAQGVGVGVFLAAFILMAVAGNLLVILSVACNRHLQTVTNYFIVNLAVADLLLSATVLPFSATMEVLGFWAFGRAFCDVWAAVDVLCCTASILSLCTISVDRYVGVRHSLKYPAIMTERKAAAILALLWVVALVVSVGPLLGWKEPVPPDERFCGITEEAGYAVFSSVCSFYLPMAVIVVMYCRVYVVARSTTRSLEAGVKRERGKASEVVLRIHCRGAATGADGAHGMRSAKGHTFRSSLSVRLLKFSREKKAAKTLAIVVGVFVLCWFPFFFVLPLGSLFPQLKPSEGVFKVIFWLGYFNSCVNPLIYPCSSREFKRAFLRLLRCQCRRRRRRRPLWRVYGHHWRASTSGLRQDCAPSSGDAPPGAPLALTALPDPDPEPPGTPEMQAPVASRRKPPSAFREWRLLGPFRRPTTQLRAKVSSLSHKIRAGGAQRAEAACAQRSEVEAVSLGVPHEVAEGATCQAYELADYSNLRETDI
Measured Quantity: pKi
When answering, recall that pKi equals minus log10 of the concentration in mol/L, and write that number alone.

query: Give pKi (Alpha1D (Homo sapiens, UniProt P25100)) of the following compound: CN(C(=O)OCc1ccccc1)C1CCCc2ccc(N3CCN(C4CCCC4)CC3)cc21 (stereo not shown)
result: 5.74

* * *

# Target Of Assay: UniProtKB P34969
# Sequence (P34969 whole entry, species assumed): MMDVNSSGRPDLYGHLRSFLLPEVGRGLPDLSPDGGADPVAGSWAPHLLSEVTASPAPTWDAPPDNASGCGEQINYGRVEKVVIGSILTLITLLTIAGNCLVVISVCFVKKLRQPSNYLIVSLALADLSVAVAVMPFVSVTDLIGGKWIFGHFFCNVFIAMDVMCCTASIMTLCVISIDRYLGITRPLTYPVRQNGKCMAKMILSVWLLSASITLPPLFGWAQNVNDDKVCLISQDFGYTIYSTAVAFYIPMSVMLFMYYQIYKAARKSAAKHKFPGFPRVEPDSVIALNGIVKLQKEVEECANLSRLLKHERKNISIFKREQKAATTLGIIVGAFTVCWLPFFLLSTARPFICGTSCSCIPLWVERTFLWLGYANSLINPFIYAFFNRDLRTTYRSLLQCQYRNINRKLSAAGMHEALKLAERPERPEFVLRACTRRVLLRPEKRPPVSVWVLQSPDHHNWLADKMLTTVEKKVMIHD
Just a reminder that ties go to Not fulfilled: only Ki strictly below 1000 nM counts as Fulfilled.

Solved entries:
compound="CCCN1CCN(c2ccc3c(c2)C(N(CCC)C(=O)OCc2ccccc2)CCC3)CC1 (centres unmarked)" cat="Not fulfilled"
compound="CN(C(=O)OCc1ccccc1)C1CCCc2ccc(N3CCN(C4CCCC4)CC3)cc21 (centres unmarked)" cat="Not fulfilled"
compound="CCN(CC)C(=O)CCN1CCN(c2ccc3c(c2)C(N(C)C(=O)OCc2ccccc2)CCC3)CC1 (centres unmarked)" cat=Fulfilled
compound="CN(C(=O)OCc1ccccc1)C1CCCc2ccc(N3CCN(CCCO)CC3)cc21 (centres unmarked)" cat=Fulfilled

API: the following record is the query input.
query: Determine if CCCN(C(=O)OCc1ccccc1)C1CCCc2ccc(N3CCN(CCC(=O)OCC)CC3)cc21 (centres unmarked) shows Ki strictly lower than 1000 nM.
result: Fulfilled

Cited source: patent US20210323913A1
